Cited source: patent US11912701B2

assayed.system: MKK4 (Homo sapiens, UniProt P45985)
Construct: S84/D399; host or cells: HEK-293
Sequence (P45985 84-399): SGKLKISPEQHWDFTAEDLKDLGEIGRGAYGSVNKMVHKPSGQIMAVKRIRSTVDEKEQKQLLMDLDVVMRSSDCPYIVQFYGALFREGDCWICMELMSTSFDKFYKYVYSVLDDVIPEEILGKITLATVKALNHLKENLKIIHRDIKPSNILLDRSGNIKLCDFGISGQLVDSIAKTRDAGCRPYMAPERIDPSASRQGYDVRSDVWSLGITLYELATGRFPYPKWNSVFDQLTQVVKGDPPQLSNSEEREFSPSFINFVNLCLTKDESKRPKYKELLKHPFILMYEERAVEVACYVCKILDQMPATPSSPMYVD
experiment: KINOMEscan competition binding assay, MKK4
reported.conditions: residual percent of control binding (PoC) at 100 nM
experimental.endpoint: MKK4 [% Ctrl @ 100 nM

CCCS(=O)(=O)Nc1ccc(F)c(C(=O)c2c[nH]c3ncc(-c4ccc(C5CCC5)cc4)cc23)c1F; +++ (PoC < 1)
O=C(c1ccc(F)c(NS(=O)(=O)CCC(F)(F)F)c1F)c1c[nH]c2ncc(-c3cnc(N4CCCC4)nc3)cc12; +++ (PoC < 1)
